Tested on: HepG2
Test: cell viability relative to DMSO; higher = less toxic
Settings: 72 h; 10 nM
Please provide measured cell viability for the entries that follow.

// below: answered compounds
CO[C@H]1CC[C@H](N2C(=O)CNc3ncc(-c4ccc(C(C)(C)O)nc4)nc32)CC1 [CC-223]    95.6%
Nc1ncnc2c1ncn2[C@@H]1O[C@H](CO)[C@@H](O)[C@H]1O [adenosine]    102%
CN1CCN(c2c(F)cc3c(=O)c(C(=O)O)cn4c3c2SCC4)CC1 [rufloxacin]    99.5%
CN1C(=O)CC(c2ccccc2)C1=O (centres undefined) [phensuximide]    110%

For each listed entry, give its cell viability.
1. Cc1nc(-c2cccnc2)sc1C(=O)Nc1ccccc1-c1cn2c(CN3CCOCC3)csc2n1 [SRT2104]
2. CCCCCCCCCCCCCCCCCCCCCCO [docosanol]

**Result**
1. 92.8%
2. 100%

Batch request: cell viability for each of the following compounds.
1. COc1ccc(Cc2cnc(N)nc2N)cc1OC [diaveridine]
2. Cc1c[nH]c2ncnc(N3CCC(CN)(C(=O)Nc4cccc(OC(=O)N(C)C)c4)CC3)c12 [LX7101]
3. Cc1ccc2c(c1)C1(CCN(CCc3nc(-c4ccccc4)oc3C)CC1)OC(=O)N2

**Result**
["102%", "99.2%", "96%"]
